Molecular target: T1, biotinylated human plasma Kallikrein (human, UniProt P03952 20-638, biotinylated)
T1 construct: also called Biotinylated hPK
T1 sequence (P03952 20-638 limits assumed): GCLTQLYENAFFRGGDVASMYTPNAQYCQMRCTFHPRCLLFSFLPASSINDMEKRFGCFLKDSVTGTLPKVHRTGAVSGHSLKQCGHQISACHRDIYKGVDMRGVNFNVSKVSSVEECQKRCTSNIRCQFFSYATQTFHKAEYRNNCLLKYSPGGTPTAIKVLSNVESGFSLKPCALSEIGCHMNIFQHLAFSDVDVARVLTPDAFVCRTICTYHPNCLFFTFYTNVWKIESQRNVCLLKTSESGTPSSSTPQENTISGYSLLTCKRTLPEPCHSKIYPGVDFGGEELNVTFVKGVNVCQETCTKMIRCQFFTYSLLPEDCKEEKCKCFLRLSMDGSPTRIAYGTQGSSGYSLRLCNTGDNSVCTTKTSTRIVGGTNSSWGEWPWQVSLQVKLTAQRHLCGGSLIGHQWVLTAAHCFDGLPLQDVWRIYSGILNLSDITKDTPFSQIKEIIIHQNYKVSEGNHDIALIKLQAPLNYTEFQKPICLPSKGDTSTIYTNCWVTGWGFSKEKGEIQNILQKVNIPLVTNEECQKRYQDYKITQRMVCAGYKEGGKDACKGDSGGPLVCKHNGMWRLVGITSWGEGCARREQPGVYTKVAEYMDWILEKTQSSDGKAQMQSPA
Assay: phage binding assay
Numbered stars: 1 amine (or outer) side, 2 acyl side, 3 side chain; on linkers, the order of the positions; unused ones are H or OH. Bridge positions count the residues as written; N and C are the ends. Ends that are not written are not given here. TBMB = c1c(C[*:1])cc(C[*:3])cc1C[*:2]
Rank (by Kallikrein binding) vs 20: less than gives 1.0; not less than gives 0.0.

| binder | label_class |
| --- | --- |
| CSWPSRCTHQDLC (linker 1-7-13 via TBMB) [SEQ ID NO 74] | 1.0 |
| CSWWARCTHQDLC (linker 1-7-13 via TBMB) [SEQ ID NO 99] | 0.0 |
| CSFPYKCTHQDLC (linker 1-7-13 via TBMB) [SEQ ID NO 94] | 0.0 |
| CSLFDHCTHQDLC (linker 1-7-13 via TBMB) [SEQ ID NO 112] | 0.0 |
| CSHRRWCTHQDLC (linker 1-7-13 via TBMB) [SEQ ID NO 113] | 0.0 |
| CSHPYRCTHQDLC (linker 1-7-13 via TBMB) [SEQ ID NO 80] | 1.0 |
